ASSAY_COMMENT: Probe fluorescence ratio response to linolenic acid relative to ADIFAB2
Format: binding
EXPERIMENTAL_PARAMETERS: response relative to ADIFAB2
Please provide measured DR/DR LNA for the entries that follow.

Measured DR/DR LNA, 68L, 72A (protein, listed as Rattus norvegicus, PEPTIDE (1)...(131) wild-type rat intestinal fatty acid binding protein) AFDGTWKVDRNENYEKFMEKMGINVVKRKLGAHDNLKLTITQEGNKFTVKESSNFRNIDVVFELGVDLAYSAADGTELTGTWTMEGNKLVGKFKRVDNGKELIAVREISGNELIQTYTYEGVEAKRIFKKE : 0.52

Form: molecule = 38T3, 72A (protein, listed as Rattus norvegicus, PEPTIDE (1)...(131) wild-type rat intestinal fatty acid binding protein) AFDGTWKVDRNENYEKFMEKMGINVVKRKLGAHDNLKTTITQEGNKFTVKESSNFRNIDVVFELGVDFAYSAADGTELTGTWTMEGNKLVGKFKRVDNGKELIAVREISGNELIQTYTYEGVEAKRIFKKE ; DR/DR LNA = 1.64

Per the records, this molecule ( 18V 31A 73F 72A (protein, listed as Rattus norvegicus, PEPTIDE (1)...(131) wild-type rat intestinal fatty acid binding protein) AFDGTWKVDRNENYEKFVEKMGINVVKRKLAAHDNLKLTITQEGNKFTVKESSNFRNIDVVFELGVDFAYSAFDGTELTGTWTMEGNKLVGKFKRVDNGKELIAVREISGNELIQTYTYEGVEAKRIFKKE ) has DR/DR LNA equal to 2.036

// 38V 62V 117A 72A (protein, listed as Rattus norvegicus, PEPTIDE (1)...(131) wild-type rat intestinal fatty acid binding protein) AFDGTWKVDRNENYEKFMEKMGINVVKRKLGAHDNLKVTITQEGNKFTVKESSNFRNIDVVVELGVDFAYSAADGTELTGTWTMEGNKLVGKFKRVDNGKELIAVREISGNELIQTATYEGVEAKRIFKKE : DR/DR LNA value = 1.153

Summary for this molecule, 17C, 72A (protein, listed as Rattus norvegicus, PEPTIDE (1)...(131) wild-type rat intestinal fatty acid binding protein) AFDGTWKVDRNENYEKCMEKMGINVVKRKLGAHDNLKLTITQEGNKFTVKESSNFRNIDVVFELGVDFAYSAADGTELTGTWTMEGNKLVGKFKRVDNGKELIAVREISGNELIQTYTYEGVEAKRIFKKE : DR/DR LNA is 0.26

Looking up 31D2, 72A (protein, listed as Rattus norvegicus, PEPTIDE (1)...(131) wild-type rat intestinal fatty acid binding protein) AFDGTWKVDRNENYEKFMEKMGINVVKRKLDAHDNLKLTITQEGNKFTVKESSNFRNIDVVFELGVDFAYSAADGTELTGTWTMEGNKLVGKFKRVDNGKELIAVREISGNELIQTYTYEGVEAKRIFKKE , I see its DR/DR LNA listed as 0.14
